SYSTEM: T1, Recombinant sCD4 comprising the full-length extracellular domain of human CD4 (human, UniProt P01730 26-396)
T1 construct: also called human sCD4 protein; CD4 protein
TEST DESCRIPTION: SPR (Biacore), antibody on CM5 chip by amine coupling, sCD4 as analyte, 25 C
Collected Kd values appear next to each entry.
ENDPOINT: Kd (pM)

BINDER: Ibalizumab light chain mutant LM67 (antibody, human IgG1, kappa, V domains shown) VH: QVQLQQSGPEVVKPGASVKMSCKASGYTFTSYVIHWVRQKPGQGLDWIGYINPYNDGTDYDEKFKGKATLTSDTSTSTAYMELSSLRSEDTAVYYCAREKDNYATGAWFAYWGQGTLVTVSS VL: DIVMTQSPDSLAVSLGERVTMNCKSSQSLLYSTNQKNYLAWYQQKPGQSPKLLIYWASTRESGVPDRFSGSGNATDFTLTISSVQAEDVAVYYCQQYYSYRTFGGGTKLEIKR
RESULT UNITS: pM
QUANTITATIVE RESULT: 800

BINDER: Ibalizumab light chain mutant LM53 (antibody, human IgG1, kappa, V domains shown) VH: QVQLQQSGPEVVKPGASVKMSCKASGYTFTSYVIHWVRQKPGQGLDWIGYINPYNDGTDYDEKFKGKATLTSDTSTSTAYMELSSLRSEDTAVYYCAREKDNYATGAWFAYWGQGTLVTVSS VL: DIVMTQSPDSLAVSLGERVTMNCKSSQSLLYSTNQKNYLAWYQQKPGQSPKLLIYWASNATSGVPDRFSGSGSGTDFTLTISSVQAEDVAVYYCQQYYSYRTFGGGTKLEIKR
RESULT UNITS: pM
QUANTITATIVE RESULT: 530

BINDER: Ibalizumab light chain mutant LM76 (antibody, human IgG1, kappa, V domains shown) VH: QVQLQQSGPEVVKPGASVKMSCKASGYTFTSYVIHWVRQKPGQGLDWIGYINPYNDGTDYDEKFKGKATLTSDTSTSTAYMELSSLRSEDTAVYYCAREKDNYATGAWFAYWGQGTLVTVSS VL: DIVMTQSPDSLAVSLGERVTMNCKSSQSLLYSTNQKNYLAWYQQKPGQSPKLLIYWASTRESGVPDRFSGSGSGTDFTLTINATQAEDVAVYYCQQYYSYRTFGGGTKLEIKR
RESULT UNITS: pM
QUANTITATIVE RESULT: 280

BINDER: Ibalizumab light chain mutant LM65 (antibody, human IgG1, kappa, V domains shown) VH: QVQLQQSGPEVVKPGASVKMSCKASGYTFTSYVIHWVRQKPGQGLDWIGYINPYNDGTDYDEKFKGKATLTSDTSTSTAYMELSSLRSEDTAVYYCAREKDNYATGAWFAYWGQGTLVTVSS VL: DIVMTQSPDSLAVSLGERVTMNCKSSQSLLYSTNQKNYLAWYQQKPGQSPKLLIYWASTRESGVPDRFSGNATGTDFTLTISSVQAEDVAVYYCQQYYSYRTFGGGTKLEIKR
RESULT UNITS: pM
QUANTITATIVE RESULT: 1500
